- Tested on: CP191
- procedureDetails: qHTS profiling for inhibitors of Plasmodium falciparum proliferation (AID 504749); note: nearly all actives have a fitted effect of over 60% in size
- particulars: P. falciparum in erythrocytes, SYBR Green DNA, 72 h; series mostly up to 28.7 µM
Results filed as inconclusive are left out. Active and inactive are the calls of the source. Calls come from the whole dose curve; as a rule, active = well fitted inhibition curve with a large enough effect; inconclusive = small, poorly fitted or top-dose-only effect; inactive = flat fitted curve, though single readings scatter.
Choose one outcome from this list and give only that: True (active), False (inactive)

### Prompt What was the test verdict on N=C(N)c1ccc2cc(OC(=O)c3ccc(N=C(N)N)cc3)ccc2c1 ?
### Response True

### Prompt Same question for O=C1c2ccccc2-c2n[nH]c3cccc1c23 please.
### Response False

### Prompt Please answer likewise for Cc1cccc(C)c1OCC(=O)N[C@@H](Cc1ccccc1)[C@@H](O)C[C@H](Cc1ccccc1)NC(=O)[C@H](C(C)C)N1CCCNC1=O
### Response True

### Prompt Note, next up: O=C(O)c1cc(=O)c2c(OCC(O)COc3cccc4oc(C(=O)O)cc(=O)c34)cccc2o1
### Response False

### Prompt Again, but for CS(=O)(=O)OCCCCOS(C)(=O)=O
### Response False

### Prompt Next up: C=CCc1cc(OC)c(O)c(C(=O)NCCO)c1
### Response False

### Prompt Another molecule to look at: O=C(NC(Cc1cc(=O)[nH]c2ccccc12)C(=O)O)c1ccc(Cl)cc1 (stereo not given)
### Response False

### Prompt Further, for CN1C(C(=O)Nc2ccccn2)=C(O)c2sccc2S1(=O)=O ?
### Response False

### Prompt Same question for C[C@]12CCC(=O)C=C1CC[C@@H]1[C@H]2[C@@H](O)C[C@@]2(C)[C@H]1CC[C@]2(O)C(=O)CO please.
### Response False

### Prompt Moving on to the next molecule: COc1ccc(C2(C#N)CCC(C(=O)O)CC2)cc1OC1CCCC1 (stereo not given)
### Response False

----------
- procedureDetails: qHTS of pediatric cancer cell lines to identify multiple opportunities for drug repurposing: Primary screen for OHS-50 cells (AID 1347103); note: nearly all actives have a fitted effect of over 40% in size
- particulars: OHS-50 osteosarcoma viability, CellTiter-Glo luminescence, 48 h; series mostly up to 57.3 µM
- Method: Drug repurposing or repositioning has been offered as a strategy for drug development in oncology programs. […] [1] Shen, M et al. Quantitative high-throughput phenotypic screening of pediatric cancer cell lines identifies multiple opportunities for drug repurposing. […] Cells were assayed in growth media at a density of 500-1,000 cells/well. […] After a 15 min incubation at room temperature, samples were analyzed for luminescence intensity using a ViewLux High-throughput CCD imager equipped with clear filters.
Results filed as inconclusive are left out. Activity calls are given as the source filed them. The call rests on the fitted dose curve; in most records, active means well fitted cell-killing curve with a large enough effect; inconclusive means small, poorly fitted or top-dose-only effect; inactive means no such curve, though single readings can be large or run the other way.
Just give me one of these, please: active, inactive

### Prompt Outcome? C[C@H](Cn1cnc2c(N)ncnc21)OCP(=O)(O)O
### Response inactive

### Prompt Item: Cc1c(C(=O)NN2CCCCC2)nn(-c2ccc(Cl)cc2Cl)c1-c1ccc(Cl)cc1
### Response active

### Prompt Query NNc1nncc2ccccc12 next
### Response inactive

### Prompt Also CC1Cc2ccccc2N1NC(=O)c1ccc(Cl)c(S(N)(=O)=O)c1 (stereo not drawn) , if possible.
### Response inactive

### Prompt Request: CN(C)CCCC1(c2ccc(F)cc2)OCc2cc(C#N)ccc21 (stereo not drawn)
### Response inactive

### Prompt Also CCCCCCCCOc1ccccc1C(=O)Nc1ccc(C(=O)OCC[N+](C)(CC)CC)cc1 , if possible.
### Response inactive

### Prompt // same read-out, input: OC(CN1CCN(c2cccc(Cl)c2)CC1)C(c1ccccc1)c1ccccc1 (stereo not drawn)
### Response active

### Prompt Can you handle Cc1cc2c(s1)Nc1ccccc1N=C2N1CCN(C)CC1 next?
### Response inactive

### Prompt Same read-out for CCOc1cc(CC(=O)N[C@@H](CC(C)C)c2ccccc2N2CCCCC2)ccc1C(=O)O ?
### Response inactive

### Prompt Can you handle O=c1oc2cc(O)ccc2s1 next?
### Response inactive

### Prompt Another molecule to check: Cc1cc(O)c2c(c1)C(=O)c1cc(O)cc(O)c1C2=O
### Response inactive

### Prompt Same again, this time with COc1ccc(C2(C#N)CCC(C(=O)O)CC2)cc1OC1CCCC1 (stereo not drawn)
### Response inactive

### Prompt // next record O=C(NC(Cc1cc(=O)[nH]c2ccccc12)C(=O)O)c1ccc(Cl)cc1 (stereo not drawn)
### Response inactive

### Prompt How about this molecule: Cc1ccc(Nc2nccc(N(C)c3ccc4c(C)n(C)nc4c3)n2)cc1S(N)(=O)=O
### Response active

### Prompt # repeat for N[C@@H](Cc1cc(I)c(Oc2cc(I)c(O)c(I)c2)c(I)c1)C(=O)O
### Response inactive

### Prompt Same thing, different molecule: O=C(O)CCNC(=O)c1ccc(N=Nc2ccc(O)c(C(=O)O)c2)cc1
### Response inactive

### Prompt Item: Cc1cc(=O)oc2cc(O)ccc12
### Response inactive

### Prompt Try this molecule too: O=C(O)c1cn(-c2ccc(F)cc2)c2cc(N3CCNCC3)c(F)cc2c1=O
### Response inactive

### Prompt Now give it for CC(=O)Nc1ccc(O)cc1 too.
### Response inactive

### Prompt Next molecule: O=c1c(O)c(-c2ccc(O)cc2O)oc2cc(O)cc(O)c12
### Response inactive

### Prompt Then CC1(C)C(=O)N(CCN2CCC(C(=O)c3ccc(F)cc3)CC2)c2ccccc21 ?
### Response inactive

### Prompt CCC1=C(C)CN(C(=O)NCCc2ccc(S(=O)(=O)NC(=O)NC3CCC(C)CC3)cc2)C1=O (stereo not drawn) , same question.
### Response inactive

### Prompt Further, for O=C(CCc1ccc(O)cc1)c1c(O)cc(O)cc1O ?
### Response active

----------
- systemName: Tyrosine-protein kinase Yes (Homo sapiens) (UniProt P07947)
- Sequence (P07947 whole entry, looked up): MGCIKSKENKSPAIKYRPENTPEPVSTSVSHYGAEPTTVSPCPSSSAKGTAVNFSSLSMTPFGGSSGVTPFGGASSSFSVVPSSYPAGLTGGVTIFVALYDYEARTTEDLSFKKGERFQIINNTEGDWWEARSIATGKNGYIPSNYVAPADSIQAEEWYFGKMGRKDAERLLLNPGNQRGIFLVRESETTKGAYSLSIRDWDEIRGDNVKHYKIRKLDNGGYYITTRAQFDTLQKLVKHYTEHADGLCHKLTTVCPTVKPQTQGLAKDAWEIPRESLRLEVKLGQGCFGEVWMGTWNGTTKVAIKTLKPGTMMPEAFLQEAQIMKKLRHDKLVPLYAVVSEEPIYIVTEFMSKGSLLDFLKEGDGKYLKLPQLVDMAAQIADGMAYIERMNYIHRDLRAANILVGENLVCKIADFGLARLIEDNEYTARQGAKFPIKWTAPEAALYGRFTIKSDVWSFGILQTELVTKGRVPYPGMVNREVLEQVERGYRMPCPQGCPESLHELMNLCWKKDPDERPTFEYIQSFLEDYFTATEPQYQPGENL
- procedureDetails: qHTS for small molecule inhibitors of Yes1 kinase: Primary Screen (AID 686947); note: nearly all actives have a fitted effect of over 60% in size
- particulars: Yes1 kinase biochemical qHTS inhibition; series mostly up to 76.9 µM
Inconclusive results are not listed. Active and inactive are the calls of the source. Calls come from the whole dose curve; as a rule, active = well fitted inhibition curve with a large enough effect; inconclusive = small, poorly fitted or top-dose-only effect; inactive = no such curve, though single readings can be large or run the other way.
Respond with a class label; see 1 (yes) for active, 0 (no) for inactive

### Prompt Lab log entry: C[C@@H](N)C1CCC(C(=O)Nc2ccncc2)CC1 (stereo not given in full) — outcome as called in the assay?
### Response 0 (no)

### Prompt Item: NS(=O)(=O)c1cc(C(=O)O)c(NCc2ccco2)cc1Cl
### Response 0 (no)

### Prompt Moving on to the next compound: CC(C)C[C@H](NC(=O)[C@H](Cc1ccccc1)NC(=O)c1cnccn1)B(O)O
### Response 0 (no)

### Prompt Query CCN(CC)CCOc1ccc(Nc2ncc3cc(-c4c(Cl)cccc4Cl)c(=O)n(C)c3n2)cc1 next
### Response 1 (yes)

### Prompt Ok, now CCOC(=O)C(C)Oc1cccc2c(=O)n(CC(=O)Nc3ccc4c(c3)OCCO4)ccc12 (stereo not given)
### Response 0 (no)

----------
- procedureDetails: Quantitative High-Throughput drug screen in 47 multiple myeloma cell lines against the NCATS MIPE library collection: KMS27_JCRB cell viability assay (AID 1918970); note: nearly all actives have a fitted effect of over 30% in size; note: potency is the fitted concentration of half-maximal effect
- particulars: KMS27 myeloma cells, CellTiter-Glo ATP viability, 48 h; series mostly up to 45.8 µM
Inconclusive results are not listed. Calls of active or inactive are those of the source. Calls follow the shape of the dose curve; as a rule, active = well fitted cell-killing curve with a large enough effect; inconclusive = small, poorly fitted or top-dose-only effect, or effect the other way; inactive = no such curve, though single readings can be large or run the other way.
measuredEndpoint: Potency

Field: example entries. Status: answers known.
Cn1c(NCCN(CCO)CCCc2ccc([N+](=O)[O-])cc2)cc(=O)n(C)c1=O :: 26.4 µM (active)
CC(C)c1ccc2c(c1)c(SC(C)(C)C)c(CC(C)(C)C(=O)O)n2Cc1ccc(Cl)cc1 :: inactive
Cc1cc2c(s1)Nc1ccccc1N=C2N1CCN(C)CC1 :: inactive
CN(C)c1ccc2nc3ccc(=[N+](C)C)cc-3sc2c1 :: 1.32 µM (active)
CCC(C)(Oc1ccc(C2(c3ccc(OC(C)(CC)C(=O)O)cc3)CCCCC2)cc1)C(=O)O (centres undefined) :: inactive

### Prompt Please report the recorded Potency for O=C1CCc2ccc(OCCCCN3CCN(c4cccc(Cl)c4Cl)CC3)cc2N1 .
### Response inactive

### Prompt Also C[C@H](Cn1cnc2c(N)ncnc21)OCP(=O)(O)O , if possible.
### Response inactive

----------
- procedureDetails: qHTS for differential inhibitors of proliferation of Plasmodium falciparum line D10 (AID 1877);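 note: parasites grown with compound for 72 h before DNA staining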
- particulars: series mostly up to 28.7 µM
Records with an inconclusive call do not appear. Activity calls are given as the source filed them. Calls come from the whole dose curve; as a rule, active = well fitted curve in the direction sought with a large enough effect; inconclusive = small, poorly fitted or top-dose-only effect, or another doubt; inactive = no such curve, though single readings can be large or run the other way.
// one of Yes (active), No (inactive), no free text

### Prompt # lookup: test call for O=c1cc(N2CCOCC2)oc2c(-c3ccccc3)cccc12
### Response No

### Prompt Record: Cc1cc(O)c2c(c1)C(=O)c1cc(O)cc(O)c1C2=O
### Response No

### Prompt Likewise for C[C@@H](N)C1CCC(C(=O)Nc2ccncc2)CC1 (stereo partly drawn) ?
### Response No

### Prompt Query O=c1c(O)c(-c2ccc(O)cc2O)oc2cc(O)cc(O)c12 next
### Response No

### Prompt Then this molecule: O=C(CCc1ccc(O)cc1)c1c(O)cc(O)cc1O
### Response No

### Prompt Param item: C[C@H](Cc1ccc(O)c(O)c1)[C@@H](C)Cc1ccc(O)c(O)c1
### Response Yes

### Prompt Try Cc1cccc(C#Cc2ccccc2)n1 next.
### Response No

### Prompt Now try CC(C)c1ccc2c(c1)c(SC(C)(C)C)c(CC(C)(C)C(=O)O)n2Cc1ccc(Cl)cc1 .
### Response Yes
